test system: NCI-H460; experiment: MTT antiproliferative assay, NCI-H460; assay type: cell-based, human; conditions: 48 h, mean ± SD
MEASURED_METRIC: IC50

The following molecules have reported results that may help.
MOLECULE	TESTED_TARGET	RESULT
CCN(CC)CCNc1nc2c(c3ccccc13)S(=O)(=O)c1nc(-c3ccccc3)cc(C)c1-2 [7cb]	NCI-H460	> 100 µM
CCN(CC)CCCNc1nc2c(c3ccccc13)S(=O)(=O)c1nc(-c3ccccc3)cc(C)c1-2 [7cg]	NCI-H460	16.6 µM
Cc1cc(-c2ccccc2)nc2c1-c1nc(NCCN3CCOCC3)c3ccccc3c1S2(=O)=O [7cd]	NCI-H460	> 100 µM
Cc1cc(-c2ccccc2)nc2c1-c1nc(NCCCN3CCOCC3)c3ccccc3c1S2(=O)=O [7ci]	NCI-H460	> 100 µM
Cc1cc(-c2ccccc2)nc2c1-c1nc(NCCCn3ccnc3)c3ccccc3c1S2(=O)=O [7cj]	NCI-H460	> 100 µM
Cc1cc(-c2ccccc2)nc2c1-c1nc(NCCCN(C)C)c3ccccc3c1S2(=O)=O [7cf]	NCI-H460	12.6 µM
[NH2][Pt]([NH2])([Cl])[Cl] [CDDP, cisplatin, reference compound]	NCI-H460	12.2 µM
Cc1cc(-c2ccccc2)nc2c1-c1nc(NCCN3CCCC3)c3ccccc3c1S2(=O)=O [7cc]	NCI-H460	> 100 µM

Provide the documented IC50 with NCI-H460 as the system for Cc1cc(-c2ccccc2)nc2c1-c1nc(NCCN3CCCCC3)c3ccccc3c1S2(=O)=O [7ce] 93 µM

Please answer likewise for Cc1cc(-c2ccccc2)nc2c1-c1nc(NCCCN3CCCC3)c3ccccc3c1S2(=O)=O [7ch] > 100 µM

Please answer likewise for Cc1cc(-c2ccccc2)nc2c1-c1nc(NCCN(C)C)c3ccccc3c1S2(=O)=O [7ca] > 100 µM

* * *

system: SV-HUC-1; assay: MTT assay, normal cell line SV-HUC-1; format: cell-based; settings: SV-HUC1, 48 h, mean ± SD
Hi! Could you tag entries with IC50 below 8 µM as 1, and those at or above as -1? Much appreciated.

Study these solved cases before continuing.
COMPOUND	QUALITATIVE_LABEL
O=S1(=O)c2ncccc2-c2nc(NCCN3CCCC3)c3ccccc3c21 [7ac]	-1
O=S1(=O)c2ncccc2-c2nc(NCCCN3CCOCC3)c3ccccc3c21 [7ai]	-1
Cc1cc(C)c2c(n1)S(=O)(=O)c1c-2nc(NCCCN(C)C)c2ccccc12 [7bf]	1

Answer whether the compound O=S1(=O)c2ncccc2-c2nc(N3CCCC3)c3ccccc3c21 [7al] has IC50 strictly less than 8 µM -1

Please answer likewise for CC[C@@]1(O)C(=O)OCc2c1cc1n(c2=O)Cc2cc3c(CN(C)C)c(O)ccc3nc2-1 [TPT, topotecan, reference compound] -1

* * *

biological target: Topo I (Homo sapiens); assay: Topo I inhibitory activity, agarose gel electrophoresis (pBR322); type: biochemical; conditions: 20 μM
Sequence (P11387 whole entry): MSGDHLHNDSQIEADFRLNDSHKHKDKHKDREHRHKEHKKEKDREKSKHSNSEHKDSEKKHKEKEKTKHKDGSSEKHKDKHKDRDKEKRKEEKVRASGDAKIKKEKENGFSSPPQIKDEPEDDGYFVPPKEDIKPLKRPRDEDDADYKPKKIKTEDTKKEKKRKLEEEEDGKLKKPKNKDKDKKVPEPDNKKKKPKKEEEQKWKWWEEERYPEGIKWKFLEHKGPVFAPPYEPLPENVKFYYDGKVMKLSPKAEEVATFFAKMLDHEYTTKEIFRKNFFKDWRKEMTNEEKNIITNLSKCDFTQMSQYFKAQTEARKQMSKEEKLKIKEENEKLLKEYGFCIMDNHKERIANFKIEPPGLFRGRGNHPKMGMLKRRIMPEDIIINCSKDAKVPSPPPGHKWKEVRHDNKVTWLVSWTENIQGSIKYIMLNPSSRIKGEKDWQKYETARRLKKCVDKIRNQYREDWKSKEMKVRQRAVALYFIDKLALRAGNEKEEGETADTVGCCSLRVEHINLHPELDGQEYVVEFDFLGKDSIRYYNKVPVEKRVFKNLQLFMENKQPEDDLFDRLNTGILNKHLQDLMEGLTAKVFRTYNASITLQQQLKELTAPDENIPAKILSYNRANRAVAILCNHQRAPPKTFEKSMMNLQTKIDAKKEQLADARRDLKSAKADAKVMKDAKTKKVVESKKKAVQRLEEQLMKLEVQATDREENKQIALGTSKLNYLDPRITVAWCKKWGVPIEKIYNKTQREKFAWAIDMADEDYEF
MEASURED_METRIC: Topo I inhibitory activity (in words)

The following molecules have reported results that may help.
MOLECULE	Topo I inhibitory activity (in words)
Cc1cc(C)c2c(n1)S(=O)(=O)c1c-2nc(NCCN2CCCCC2)c2ccccc12 [7be]	potent Topo I activity
Cc1cc(C)c2c(n1)S(=O)(=O)c1c-2nc(NCCCN2CCOCC2)c2ccccc12 [7bi]	weak Topo I activity
Cc1cc(C)c2c(n1)S(=O)(=O)c1c-2nc(NCCN(C)C)c2ccccc12 [7ba]	potent Topo I activity
Cc1cc(C)c2c(n1)S(=O)(=O)c1c-2nc(NCCN2CCCC2)c2ccccc12 [7bc]	potent Topo I activity
Cc1cc(C)c2c(n1)S(=O)(=O)c1c-2nc(NCCCN2CCCC2)c2ccccc12 [7bh]	potent Topo I activity

What value of Topo I inhibitory activity (in words) has been reported for the following molecule? CCN(CC)CCCNc1nc2c(c3ccccc13)S(=O)(=O)c1nc(C)cc(C)c1-2 [7bg] weak Topo I activity

Please answer likewise for Cc1cc(C)c2c(n1)S(=O)(=O)c1c-2nc(NCCN2CCOCC2)c2ccccc12 [7bd] weak Topo I activity

Please answer likewise for CCN(CC)CCNc1nc2c(c3ccccc13)S(=O)(=O)c1nc(C)cc(C)c1-2 [7bb] weak Topo I activity

* * *

system: SV-HUC-1; experiment: MTT assay, normal cell line SV-HUC-1; type: cell-based; conditions: SV-HUC1, 48 h, mean ± SD
MEASURED_METRIC: pIC50
pIC50 (log units): -log10 of the concentration in mol/L.

The following molecules have reported results that may help.
CCN(CC)CCCNc1nc2c(c3ccccc13)S(=O)(=O)c1ncccc1-2 4.12
O=S1(=O)c2ncccc2-c2nc(NCCN3CCCCC3)c3ccccc3c21 4.82
CN(C)CCNc1nc2c(c3ccccc13)S(=O)(=O)c1ncccc1-2 4.68

What value of pIC50 has been reported for the following molecule? Cc1cc(C)c2c(n1)S(=O)(=O)c1c-2nc(NCCN2CCCCC2)c2ccccc12 5.29

* * *

Recorded measurements of IC50, one per entry
tested on: SV-HUC-1; assay: MTT assay, normal cell line SV-HUC-1; format: cell-based; details: SV-HUC1, 48 h, mean ± SD
Provide only the numeric value, understood in µM.

The following compounds have reported results that may help.
COMPOUND	RESULT_NUMBER
Cc1cc(C)c2c(n1)S(=O)(=O)c1c-2nc(NCCCN2CCOCC2)c2ccccc12 [7bi]	87.4
Cc1cc(C)c2c(n1)S(=O)(=O)c1c-2nc(NCCN(C)C)c2ccccc12 [7ba]	4.66
CCN(CC)CCNc1nc2c(c3ccccc13)S(=O)(=O)c1ncccc1-2 [7ab]	21.6

What value of IC50 has been reported for the following compound? CCN(CC)CCCNc1nc2c(c3ccccc13)S(=O)(=O)c1nc(C)cc(C)c1-2 [7bg] 4.38

Please answer likewise for CCN(CC)CCNc1nc2c(c3ccccc13)S(=O)(=O)c1nc(C)cc(C)c1-2 [7bb] 3.57

Please answer likewise for Cc1cc(C)c2c(n1)S(=O)(=O)c1c-2nc(NCCN2CCCC2)c2ccccc12 [7bc] 8.17

Please answer likewise for Cc1cc(C)c2c(n1)S(=O)(=O)c1c-2nc(NCCCN2CCCC2)c2ccccc12 [7bh] 3.83
